target: Adenosine receptor A1 (Homo sapiens, UniProt P30542)
Sequence (P30542 whole entry): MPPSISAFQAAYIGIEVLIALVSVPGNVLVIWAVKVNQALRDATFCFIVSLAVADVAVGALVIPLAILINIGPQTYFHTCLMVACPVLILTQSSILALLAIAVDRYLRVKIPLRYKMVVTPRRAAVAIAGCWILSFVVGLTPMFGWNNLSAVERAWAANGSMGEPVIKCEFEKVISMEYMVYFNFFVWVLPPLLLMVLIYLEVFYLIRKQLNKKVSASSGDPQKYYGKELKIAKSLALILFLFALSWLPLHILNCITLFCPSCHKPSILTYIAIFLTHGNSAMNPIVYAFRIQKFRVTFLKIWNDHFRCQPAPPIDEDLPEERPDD
test readout: Kd
Returns: string containing the number followed by the unit.

Answered examples (2):
Cn1c(=O)[nH]c2ccccc2c1=O
34.3 µM
CC(C)n1ncc2cc(C(=O)NCc3ccco3)cnc21
27 µM

**Q:** State its Kd on Adenosine receptor A1 (Homo sapiens, UniProt P30542): "COc1cc(/C=N/Nc2ncnc3c2cnn3-c2ccccc2)ccc1O"
**A:** 1.21 µM

**Q:** Also check "O[C@H]1CC[C@H](Nc2nc(-c3ccccc3)nc3[nH]ccc23)CC1"
**A:** 0.00546 µM

**Q:** Also check "O=c1cc(NCc2ccccc2)nc2ccccn12"
**A:** 154 µM

**Q:** Also check "Nc1ccc2nnc(-c3ccccc3)n2n1"
**A:** 22.9 µM

**Q:** Also check "Nc1nsc(-c2ccc(Cl)cc2)n1"
**A:** 20.7 µM

**Q:** Also check "CS(=O)(=O)c1ccc(C(=O)Nc2cccc(Cl)c2)cc1"
**A:** 7.6 µM

----------
Here the recorded K is given for each entry.
target: Adenosine receptor A1 (Homo sapiens) (UniProt P30542); assay: Binding affinity to human wild type adenosine A1 receptor expressed in Expi293F cells assessed as affinity off-rate by surface plasmon resonance assay
Sequence (P30542 whole entry): as the sequence (P30542 whole entry) above
Entry rule: numbers only, all in s⁻¹.

O[C@H]1CC[C@H](Nc2nc(-c3ccccc3)nc3[nH]ccc23)CC1
0.0034
O=C1NC(=O)C(c2cccc(Cl)c2)=C1Nc1ccc(O)c(Cl)c1
0.27
O=C(Nc1n[nH]c2nc(-c3ccco3)c(Br)cc12)C1CC1
0.09
COc1cc(/C=N/Nc2ncnc3c2cnn3-c2ccccc2)ccc1O
0.06

Attention now shifts to the item below.
**Q:** Looking for the measured K of Fc1ccc(-c2nn3ccccc3c2-c2ccncc2)cc1 [GW434756X] , can you help?
**A:** 0.01

----------
target: Glycogen synthase kinase-3 alpha (Homo sapiens); assay: Inhibition of recombinant human GSKalpha
Sequence (P49840 whole entry): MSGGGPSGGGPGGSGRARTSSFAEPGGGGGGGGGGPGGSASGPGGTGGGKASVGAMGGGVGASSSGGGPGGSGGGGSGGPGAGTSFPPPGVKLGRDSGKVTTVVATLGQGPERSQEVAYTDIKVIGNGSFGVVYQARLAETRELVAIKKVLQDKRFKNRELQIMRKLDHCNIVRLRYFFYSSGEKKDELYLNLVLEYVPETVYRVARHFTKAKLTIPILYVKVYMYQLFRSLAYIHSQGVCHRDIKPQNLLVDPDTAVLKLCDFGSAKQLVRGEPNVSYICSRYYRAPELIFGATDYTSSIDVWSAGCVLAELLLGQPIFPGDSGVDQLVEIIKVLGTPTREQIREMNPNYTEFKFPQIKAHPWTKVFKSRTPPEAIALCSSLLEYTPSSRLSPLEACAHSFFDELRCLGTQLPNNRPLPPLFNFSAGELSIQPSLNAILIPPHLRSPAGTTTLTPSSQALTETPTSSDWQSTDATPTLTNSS
test readout: IC50 (nM)
Entry rule: numbers only, all in nM.

**Q:** Looking for the measured IC50 of "COc1cc(/C=N/Nc2ncnc3c2cnn3-c2ccccc2)ccc1O" , can you help?
**A:** 100

----------
target: Adenosine receptor A1 (Homo sapiens) (UniProt P30542); assay: Binding affinity to human wild type adenosine A1 receptor expressed in Expi293F cells assessed as affinity on-rate by surface plasmon resonance assay
Here the recorded K is given for each entry.

O=C(Nc1n[nH]c2nc(-c3ccco3)c(Br)cc12)C1CC1
4.25 10^4/M/s
COc1cc(/C=N/Nc2ncnc3c2cnn3-c2ccccc2)ccc1O
5.33 10^4/M/s
O[C@H]1CC[C@H](Nc2nc(-c3ccccc3)nc3[nH]ccc23)CC1
6.27 10^5/M/s
Fc1ccc(-c2nn3ccccc3c2-c2ccncc2)cc1 [GW434756X]
1.63 10^6/M/s

**Q:** Looking for the measured K of "O=C1NC(=O)C(c2cccc(Cl)c2)=C1Nc1ccc(O)c(Cl)c1" , can you help?
**A:** 1.21 10^5/M/s

----------
Target sequence: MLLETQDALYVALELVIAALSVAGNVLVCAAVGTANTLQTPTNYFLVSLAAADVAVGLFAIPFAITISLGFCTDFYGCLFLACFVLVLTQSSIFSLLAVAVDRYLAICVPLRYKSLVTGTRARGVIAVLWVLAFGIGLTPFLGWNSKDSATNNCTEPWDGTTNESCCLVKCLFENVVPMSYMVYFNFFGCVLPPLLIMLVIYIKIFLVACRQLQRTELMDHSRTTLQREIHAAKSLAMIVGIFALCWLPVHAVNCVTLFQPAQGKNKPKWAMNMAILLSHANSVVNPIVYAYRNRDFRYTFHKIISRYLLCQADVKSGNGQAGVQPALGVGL
test readout: pKi
// pKi: -log10(molar conc.)

**Q:** Looking for the measured pKi of "N#Cc1c(N)nc(SCc2ncc[nH]2)c(C#N)c1-c1ccc(O)cc1" , can you help?
**A:** 7.92
